- experimentalTarget: human MC4R receptor (human, UniProt P32245 1-332)
- Sequence (P32245 whole entry): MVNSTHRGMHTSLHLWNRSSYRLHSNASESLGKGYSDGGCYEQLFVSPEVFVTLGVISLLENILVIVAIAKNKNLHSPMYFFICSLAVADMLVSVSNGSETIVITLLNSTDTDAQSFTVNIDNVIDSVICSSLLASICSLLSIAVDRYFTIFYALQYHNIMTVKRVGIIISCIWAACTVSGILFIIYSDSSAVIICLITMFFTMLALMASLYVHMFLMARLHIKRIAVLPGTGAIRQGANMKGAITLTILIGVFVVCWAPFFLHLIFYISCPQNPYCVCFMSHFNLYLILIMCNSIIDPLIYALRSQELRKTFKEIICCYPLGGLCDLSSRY
- assayDetails: cell-based or functional assay
Starred links: 1 amine or outer side, 2 acyl side, 3 side chain; linkers in the order of their positions; H or OH if unused. Positions of bridges follow the written chain, without caps; N, C: chain ends. Non-standard residues stand in square brackets, D forms with d. Primed or numbered codes have the meaning given here. dPhe(4-NHAc) = 4-acetamido-D-phenylalanine, CC(=O)Nc1ccc(C[C@@H](N[*:1])C(=O)[*:2])cc1; dTyr(4-OMe)″ = O-methyl-D-tyrosine, COc1ccc(C[C@@H](N[*:1])C(=O)[*:2])cc1; dTyr(O-Me) = O-methyl-D-tyrosine, COc1ccc(C[C@@H](N[*:1])C(=O)[*:2])cc1; dPhe(4-Br) = N[C@H](Cc1ccc(Br)cc1)C(=O)O; dPhe(4-I) = N[C@H](Cc1ccc(I)cc1)C(=O)O; Tic = O=C(O)[C@@H]1Cc2ccccc2CN1; Cit = NC(=O)NCCC[C@H](N)C(=O)O; Nle = CCCC[C@H](N)C(=O)O; R2 = not defined here; Aib = CC(C)(N)C(=O)O
metricName: cAMP EC50 (nM)
Hi! Could you send only the number? It should be in nM, unit omitted.

Ac-RC[dA]R[dPhe(4-Br)][dR][dW]C-NH2 (disulfide 2-8) [CTX-1252]    885
R2-RC[dA]R[dPhe(4-Br)]R[dW]C-NH2 (disulfide 2-8; reading uncertain; also: printed as N-term. Mod. R2; Arg-cyclo(Cys-D-Ala-Arg-D-Phe(4-Br)-Arg-D-Trp-Cys)-NH2) [CTX-1226]    3.8
Ac-RC[dA]R[dPhe(4-Br)]R[Tic]C-NH2 (disulfide 2-8) [CTX-1259]    1250

Challenge: Given Ac-RC[Aib][Cit][dTyr(4-OMe)″]R[dW]C-NH2 (disulfide 2-8) [CTX-1600] , respond with its cAMP EC50.
Response given: 142

Challenge: State its cAMP EC50: Ac-RC[dA]R[dTyr(O-Me)]R[dW]C-NH2 (disulfide 2-8; SMILES COc1ccc(C[C@H]2NC(=O)[C@H](CCCNC(=N)N)NC(=O)[C@@H](C)NC(=O)[C@@H](NC(=O)[C@H](CCCNC(=N)N)NC(C)=O)CSSC[C@@H](C(N)=O)NC(=O)[C@@H](Cc3c[nH]c4ccccc34)NC(=O)[C@H](CCCNC(=N)N)NC2=O)cc1) [CTX-1238]
Response given: 6.2

Challenge: Recall and state the measured cAMP EC50 for Ac-R[Nle]CH[dPhe(4-I)]R[dW]C-NH2 (disulfide 3-8; SMILES CCCC[C@H](NC(=O)[C@H](CCCNC(=N)N)NC(C)=O)C(=O)N[C@H]1CSSC[C@@H](C(N)=O)NC(=O)[C@@H](Cc2c[nH]c3ccccc23)NC(=O)[C@H](CCCNC(=N)N)NC(=O)[C@@H](Cc2ccc(I)cc2)NC(=O)[C@H](Cc2c[nH]cn2)NC1=O) [CTX-1233] .
Response given: 2.2

Challenge: Assign cAMP EC50 to the following record: Ac-RC[Aib]R[dF][Cit][dW]C-NH2 (disulfide 2-8) [CTX-1271]
Response given: 72

Challenge: In one line, give reported cAMP EC50 of the entry Ac-R[Nle]CR[dTyr(4-OMe)″]R[dW]C-NH2 (disulfide 3-8; SMILES CCCC[C@H](NC(=O)[C@H](CCCNC(=N)N)NC(C)=O)C(=O)N[C@H]1CSSC[C@@H](C(N)=O)NC(=O)[C@@H](Cc2c[nH]c3ccccc23)NC(=O)[C@H](CCCNC(=N)N)NC(=O)[C@@H](Cc2ccc(OC)cc2)NC(=O)[C@H](CCCNC(=N)N)NC1=O) [CTX-1615] .
Response given: 13

Challenge: Hello, please tell me recorded cAMP EC50 for this one: Ac-RC[dA]R[dY]R[dW]C-NH2 (disulfide 2-8; SMILES CC(=O)N[C@@H](CCCNC(=N)N)C(=O)N[C@H]1CSSC[C@@H](C(N)=O)NC(=O)[C@@H](Cc2c[nH]c3ccccc23)NC(=O)[C@H](CCCNC(=N)N)NC(=O)[C@@H](Cc2ccc(O)cc2)NC(=O)[C@H](CCCNC(=N)N)NC(=O)[C@@H](C)NC1=O) [CTX-1237]
Response given: 998

Challenge: State, in one line, measured cAMP EC50 of Ac-RC[dA]R[dPhe(4-NHAc)]R[dW]C-NH2 (disulfide 2-8) [CTX-1245]
Response given: 4450
